test: Glass transition temperature (Tg) by thermal analysis (DSC); assay type: physicochemical; conditions: single HDC glasses (Table 1)
Response field label: string, one of yes (1) (Tg/° C. strictly below 10 °C) or no (0).

Previously resolved entries follow.
>>> qualitative_label("CC(=O)OC[C@H]1O[C@@](COC(C)=O)(O[C@H]2O[C@H](COC(C)=O)[C@@H](OC(C)=O)[C@H](OC(C)=O)[C@H]2OC(C)=O)[C@@H](OC(C)=O)[C@@H]1OC(C)=O [SOAC, sucrose octaacetate]")
"no (0)"
>>> qualitative_label("CCCCCCCCO[C@@H]1O[C@H](COC(C)=O)[C@@H](OC(C)=O)[C@H](OC(C)=O)[C@H]1OC(C)=O [OGTA, 1-0-Octyl-β-D-glucose tetraacetate]")
"yes (1)"

Task item: Regarding CC(=O)OC[C@H](OC(C)=O)[C@@H](OC(C)=O)[C@H](OC(C)=O)[C@@H](COC(C)=O)OC(C)=O [SHAC, sorbitol hexaacetate] , kindly confirm whether its Tg/° C. is beneath 10 °C.
Reply: yes (1)

Task item: What about this compound? CC(=O)OCC1OC(OC2OC(COC(C)=O)C(OC(C)=O)C(OC(C)=O)C2OC(C)=O)C(OC(C)=O)C(OC(C)=O)C1OC(C)=O (stereo not drawn) [TOAC, trehalose octaacetate]
Reply: no (0)

Task item: What would you report for CC(=O)OC[C@H]1O[C@@H](OC(C)=O)[C@H](OC(C)=O)[C@@H](OC(C)=O)[C@@H]1OC(C)=O [β-GPAC, β-glucose pentaacetate] ?
Reply: no (0)

Task item: Also need CC(=O)OC[C@H]1O[C@H](OC(C)=O)[C@H](OC(C)=O)[C@@H](OC(C)=O)[C@@H]1OC(C)=O [α-GPAC, α-glucose pentaacetate] , thanks.
Reply: no (0)

Task item: Record: CC(=O)OCC1OC(OCC2OC(OC3(COC(C)=O)OC(COC(C)=O)C(OC(C)=O)C3OC(C)=O)C(OC(C)=O)C(OC(C)=O)C2OC(C)=O)C(OC(C)=O)C(OC(C)=O)C1OC(C)=O (stereo not drawn) [RUDA, raffinose undecaacetate]
Reply: no (0)

Task item: Please answer likewise for CC(=O)OC[C@H]1O[C@@H](O[C@H]2[C@H](OC(C)=O)[C@@H](OC(C)=O)C(OC(C)=O)O[C@@H]2COC(C)=O)[C@H](OC(C)=O)[C@@H](OC(C)=O)[C@@H]1OC(C)=O (stereo partly drawn) [COAC, cellobiose octaacetate]
Reply: no (0)

Task item: CCC(=O)OCC1OC(OC2OC(COC(=O)CC)C(OC(=O)CC)C(OC(=O)CC)C2OC(=O)CC)C(OC(=O)CC)C(OC(=O)CC)C1OC(=O)CC (stereo not drawn) [TOPR, trehalose octapropanoate] ?
Reply: yes (1)
